Cited source: patent US20140271653A1

Tgt: T1, RSV-F.mmh (Respiratory Syncytial Virus)
T1 construct: also called recombinant RSV-F; soluble monomeric RSV-F
Test Protocol: SPR (Biacore), mAb captured via Fc, soluble RSV-F.mmh injected, 25 C
Classify as follows. Reported kon greater than or equal to 20000 M⁻¹ s⁻¹: true. Reported kon below: false.

H1H3592P3 (antibody, V domains shown) VH: EVQLVESGGDLVQPGRSLRLSCVASGFTFDDYAMHWVRQAPGKGLEWVSGVSWSGSTVGYADSVKGRFTVSRDNAQKSLYLQMNSLRAEDTALYYCVKDAYKFNYYYYGLDVWGQGTTVTVSS VL: EIVMTQSPATLSVSPGERATLSCRASQTILSNLAWYLQKPGQAPRLLIYGASTRATGLPARFSGSGSGTEFTLTISSLQSEDFAVYYCQQYNNWPLTFGGGTKVEIK = true
H1H3592P (antibody, V domains shown) VH: EVQLVESGGDLVQPGRSLRLSCVASGFTFDDYAMHWVRQAPGKGLEWVSGVSWSGSTVGYADSVKGRFTVSRDNAQKSLYLQMNSLRAEDTALYYCVKDAYKWNYYYYGLDVWGQGTTVTVSS VL: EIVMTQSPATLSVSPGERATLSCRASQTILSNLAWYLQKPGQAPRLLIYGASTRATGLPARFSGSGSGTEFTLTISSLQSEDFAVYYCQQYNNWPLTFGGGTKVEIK = true
H1H3603P (antibody, V domains shown) VH: QVQLQESGPGLVKPSETLSLTCTVSGGSISGYYWTWIRQPPGKGLEWIGYIYYSGATNYNPSLKSRVTISLDTSKNQFSLKLSSVTAADTAVYYCARDGNYDILTGYYNYHYYGMDVWGQGTTVTVSS VL: DIQMTQSPSSLSASVGDRVTITCRASQDIGNYLAWFQQKPGKAPESLIYAASILQSGVPSKFSGSGSGTDFTLTISSLQPEDFATYYCQQYNTFPWTFGQGTKVEIK = false

Moving on to the next binder.
Form field: kon at least 20000 M⁻¹ s⁻¹? Entry: H1H3567P (antibody, V domains shown) VH: QVQLVQSGAEVKKPGASVKVSCKASGYTLTGYYLHWVRQAPGQGLEWMGWINPTSGGTNYAQKFQGRVTMTRDTSISAAFMELSRLRSDDTAVYHCAREFWPHGMDVWGQGTTVTVSS VL: AIQMTQSPSSLSASVGDRVTITCRASQAIRNDLGWYQQKPGKAPKLLIYASSSLQSGVPSRFSGSGSGTDFTLTISSLQPEDFATYYCLADYKYTWTFGQGTKVEIK
true
